# Test system: Escherichia coli
# measurement-protocol: Induction of DNA photocleavage activity in Escherichia coli pBR322 plasmid assessed as supercoiled DNA form at 10 uM after 120 mins irradiation at 2.5 mW/cm2 by gel electrophoresis
Sorting guide: entries reporting Activity beneath 10% go in the y pile, the rest go in the n pile.

Below, 2 compounds whose answers are already recorded.
chemical-smiles: NCCCCN(CCCN)C(=O)CCCCNC(=O)c1ccc(-c2c3nc(c(-c4ccc(C(=O)NCCCCC(=O)N(CCCN)CCCCN)cc4)c4ccc([nH]4)c(-c4ccc(C(=O)NCCCCC(=O)N(CCCN)CCCCN)cc4)c4nc(c(-c5ccc(C(=O)NCCCCC(=O)N(CCCN)CCCCN)cc5)c5ccc2[nH]5)C=C4)C=C3)cc1
label: n

chemical-smiles: C=CC1=C(C)c2cc3[nH]c(cc4nc(cc5[nH]c(cc1n2)c(C)c5CCC(=O)NCCCCC(=O)N(CCCN)CCCCN)C(CCC(=O)NCCCCC(=O)N(CCCN)CCCCN)=C4C)c(C)c3C=C
label: y

q: Lab log: compare recorded Activity with 10%; is it strictly lower for Cc1cc(C)c(-c2c3nc(c(-c4ccc(C(=O)NCCCCC(=O)N(CCCN)CCCCNCCCN)cc4)c4ccc([nH]4)c(-c4c(C)cc(C)cc4C)c4nc(c(-c5ccc(C(=O)NCCCCC(=O)N(CCCN)CCCCNCCCN)cc5)c5ccc2[nH]5)C=C4)C=C3)c(C)c1 ?
a: n

q: Also need NCCCNCCCCN(CCCN)C(=O)CCCCNC(=O)c1ccc(-c2c3nc(c(-c4ccc(C(=O)NCCCCC(=O)N(CCCN)CCCCNCCCN)cc4)c4ccc([nH]4)c(-c4ccc(C(=O)NCCCCC(=O)N(CCCN)CCCCNCCCN)cc4)c4nc(c(-c5ccc(C(=O)NCCCCC(=O)N(CCCN)CCCCNCCCN)cc5)c5ccc2[nH]5)C=C4)C=C3)cc1 , thanks.
a: n

q: // same read-out, input: Cc1cc(C)c(-c2c3nc(c(-c4ccc(C(=O)NCCCCC(=O)N(CCCN)CCCCN)cc4)c4ccc([nH]4)c(-c4c(C)cc(C)cc4C)c4nc(c(-c5ccc(C(=O)NCCCCC(=O)N(CCCN)CCCCN)cc5)c5ccc2[nH]5)C=C4)C=C3)c(C)c1
a: n

q: What about C=CC1=C(C)c2cc3[nH]c(cc4nc(cc5[nH]c(cc1n2)c(C)c5CCC(=O)NCCCCC(=O)N(CCCN)CCCCNCCCN)C(CCC(=O)NCCCCC(=O)N(CCCN)CCCCNCCCN)=C4C)c(C)c3C=C ?
a: y
